Items are presented alongside their recorded herbicidal effect rating.
# Tested on: ORYSAT
# METHOD SUMMARY: Postemergence herbicidal evaluation
# Type: in vivo, Oryza sativa
# TEST CONTEXT: 0.1250 kg/ha
MEASUREMENT TYPE: herbicidal effect rating

1) Cc1nsc2ccc(-n3c(=O)cc(C(F)(F)F)n(C)c3=O)cc12 4.5
2) O=C1C2=C(CCCC2)C(=O)N1c1ccc2snc(-c3ccccc3)c2c1 2.9
3) Cc1nsc2ccc(N3C(=O)C4=C(CCCC4)C3=O)cc12 4.5
4) Cn1c(C(F)(F)F)cc(=O)n(-c2ccc3snc(-c4ccccc4)c3c2)c1=O 3.0
5) O=C1C2=C(CCCC2)C(=O)N1c1ccc2sncc2c1 2.5
